Read-out: NAD(P)H dehydrogenase [quinone] 1 (NQO1), NQO1 (gene 1728)
Assay: LTEA_HepaRG_NQO1: Life Technologies and Expression Analysis (LTEA) Assay for NAD(P)H dehydrogenase [quinone] 1 (NQO1) using HepaRG (AID 2283526)
Conditions: mRNA level, 48 h; actives raise or lower the signal
Description: LTEA_HepaRG is a cell based, multiplexed-readout assay that uses HepaRG, a human liver cell line, with measurements taken at 48 hours after chemical dosing on a 96-well plate.LTEA_HepaRG_NQO1 is one of 102 assay component(s) measured in the LTEA HepaRG cell culture assay. It is a marker of Diseases associated with NQO1 include Tardive Dyskinesia and Childhood Leukemia.Data from the assay component LTEA_HepaRG_NQO1 was analyzed into 1 endpoint. […]
Active and inactive are the calls of the source. How the source made its calls: active means hit-call score of the fitted dose curve at least 0.9, where 1 is the maximum; inactive means score below 0.9.
Use one of these outcomes when replying: t (active), f (inactive)

Use the examples below as a reference point.
INSERT INTO assay_data (compound, class_assignment) VALUES
  ('c1nc[nH]n1', 't'),
  ('CCCCCCCc1ccc(O)cc1', 'f'),
  ('CCC1(c2ccccc2)C(=O)N=C(O)NC1=O (stereo not drawn)', 'f'),
  ('CCCN(CCC)c1c([N+](=O)[O-])cc(C(C)C)cc1[N+](=O)[O-]', 'f'),
  ('CCC(C)(C)c1ccc(O)cc1', 'f'),
  ('O=P1(N(CCCl)CCCl)NCCCO1 (stereo not drawn)', 'f');

Which outcome was assigned to OCC1CO1 (stereo not drawn) in this test?
f

Please let me know the test result on file for `CCN(CC)c1ccccc1` .
f

For this compound, state the assay outcome: `CC(C)(C)c1ccc(O)cc1`
f

Kindly provide the recorded test outcome for the following compound: `CCCCc1ccccc1`
f

Query: recorded result category for `CCOP(=S)(OCC)SCSCC` in this test
f

Hi, do you know how `Cc1ccc(O)cc1C` came out in this test?
f

Hi team, can someone confirm the assay call for `CSC(C)(C)C=NO` ?
f

Hi team, can someone confirm the assay call for `CCCCN(CCCC)SN(C)C(=O)Oc1cccc2c1OC(C)(C)C2` ?
f

// return assay outcome for `Nc1ccc(Cl)cc1`
f

Test call, this compound: `Cc1ccc([N+](=O)[O-])cc1C`
f

Field: outcome | Entry: `O=P(Oc1ccccc1)(Oc1ccccc1)Oc1ccccc1`
f

In this assay, the call recorded for `CCOc1ccc(C(C)(C)COCc2cccc(Oc3ccccc3)c2)cc1` was what?
f

Look up the recorded call for `COCCOCCO` in this test.
f

What did this assay record as the result for ClC1=C(Cl)C2(Cl)C3C(Cl)C(Cl)CC3C1(Cl)C2(Cl)Cl (stereo not drawn) ?
f

Recorded test call requested for `c1cc2c3c(cccc3c1)CC2`
f

Check the results log: what was the call for `[N-]=[N+]=[N-]` ?
f

For `O=C(O)C(Cl)Cl` , which call appears in the assay record?
f
